Test system: HL-60/MX2
Assay: Cell growth inhibition assay (resazurin, 48 h)
Settings: HL-60/MX2, 48 h
Experimental: The DNA binding agent Mitoxantrone was included as a control, as HL-60/MX2 cells are reported to be resistant to this chemotherapeutic agent (Harker W. G. et al. 1989). Concentrations ranging from 6.32 μM to 2 nM were tested for II-2 and II-4. HL-60/MX2 is a multidrug resistant tumor cell line derived from the human promyelocytic leukemia cell line, HL-60 and expresses reduced topoisomerase II activity. […] Mitoxantrone, the topoisomerase II targeting agent was included as a control.
property: pEC50
Scale: pEC50 equals -log10([C]), with [C] in mol/L.

Prompt line: Please indicate recorded pEC50 of C[C@@]12OC(=O)[C@]1([C@@H](O)[C@@H]1C=CCCC1)NC(=O)[C@@H]2CCCl [Formula II-16, Salinosporamide A] measured with HL-60/MX2.
Response line: 7.60

====

Reported EC50 values follow for various compounds
system: MES-SA/Dx5; test: Cell growth inhibition assay (resazurin, 48 h); conditions: MES-SA/Dx5, 48 h
Write the number in nM without appending the unit.

C[C@@]12OC(=O)[C@]1([C@@H](O)C1CCCCC1)NC(=O)[C@@H]2CCCl
138

Prompt line: Provide measured EC50 value, entry: C[C@@]12OC(=O)[C@]1([C@@H](O)C1CCCCC1)NC(=O)[C@@H]2CCBr
Response line: 93

====

target: human erythrocyte proteasomes, Trypsin-like activity (Homo sapiens); assay: Trypsin-like activity of human erythrocyte proteasomes
property: EC50

Prompt line: Please report the measured EC50 for C[C@@]12OC(=O)[C@]1([C@@H](O)[C@@H]1C=CCCC1)NC(=O)[C@@H]2CCCl [Formula II-16, Salinosporamide A]
Response line: ~9 nM

====

test system: MES-SA; test: Cell growth inhibition assay (resazurin, 48 h); assay type: cell-based, human; settings: Homo sapiens, 48 h
property: EC50
Returns: string containing the number followed by the unit.

Prompt line: Give the reported EC50 for this compound. C[C@@]12OC(=O)[C@]1([C@@H](O)[C@@H]1C=CCCC1)NC(=O)[C@@H]2CCCl [Formula II-16, Salinosporamide A]
Response line: 20 nM

====

system: RAW264.7 cells
property: pEC50
Scale explanation: pEC50 corresponds to minus log10 of a concentration expressed in moles per litre.

Prompt line: Specify measured pEC50 for C[C@@]12OC(=O)[C@]1([C@@H](O)[C@@H]1C=CCCC1)NC(=O)[C@@H]2CCCl [Formula II-16, Salinosporamide A] .
Response line: 8.44

====

target: rabbit muscle 20S proteasome, chymotrypsin-like activity (Oryctolagus cuniculus, UniProt G1T4Q9); assay: Chymotrypsin-like activity of purified rabbit muscle 20S proteasome (suc-LLVY-AMC)
Sequence (G1T4Q9 1-263): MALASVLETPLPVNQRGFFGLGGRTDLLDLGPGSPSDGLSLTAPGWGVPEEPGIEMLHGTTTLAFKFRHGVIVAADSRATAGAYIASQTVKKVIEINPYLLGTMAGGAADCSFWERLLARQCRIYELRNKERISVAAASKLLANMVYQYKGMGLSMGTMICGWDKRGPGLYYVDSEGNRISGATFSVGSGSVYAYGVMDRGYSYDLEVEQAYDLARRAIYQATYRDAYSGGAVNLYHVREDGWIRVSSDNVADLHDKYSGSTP
pEC50: −log10 of the molar value.
property: pEC50

Prompt line: Look up and state reported pEC50 for C[C@@]12OC(=O)[C@]1(C(=O)C1=CC(O)CCC1)NC(=O)[C@]2(C)CCCl (stereo partly shown)
Response line: < 4.70

====

system: PC-3; test: Cell growth inhibition assay (resazurin, 48 h); settings: Homo sapiens, PC-3, 48 h
property: EC50

Prompt line: Could you please provide reported EC50 for CC[C@H]1C(=O)N[C@@]2([C@@H](O)C3CCCCC3)C(=O)O[C@@]12C ? Thanks!
Response line: > 20 µM

====

target: human erythrocyte proteasomes, Caspase-like activity (Homo sapiens); test: Caspase-like activity of human erythrocyte proteasomes
pEC50: −log10 of the molar value.
property: pEC50

Prompt line: Specify the recorded pEC50 for C[C@@]12OC(=O)[C@]1([C@@H](O)[C@@H]1C=CCCC1)NC(=O)[C@@H]2CCCl [Formula II-16, Salinosporamide A] , system: human erythrocyte proteasomes, Caspase-like activity (Homo sapiens).
Response line: ~6.41
